# Test system: muMax20 (Max(13-93) K31hArg/K57hArg, M65Nle)
# assay.details: PBM 8-mer E-score (E-score (rank enrichment, -0.5 to 0.5)); higher = stronger preferential binding
The full ranking holds about 33,000 sequences; the median of “E-score (rank enrichment, -0.5 to 0.5)” is about -0.0068, and the highest 2% start at about 0.24. What follows is part of a selection rich in the highest values, with near analogues and random picks from the rest.
Quick rule for you: PBM 8-mer E-score at 0.07 or higher means Criterion met, lower means Criterion not met.

>>> cat("ATCGGCAA")
"Criterion not met"
>>> cat("AACTGGGT")
"Criterion not met"
>>> cat("GACGCCAC")
"Criterion not met"
>>> cat("AAAATTTG")
"Criterion met"
>>> cat("ACGTATCG")
"Criterion not met"
>>> cat("CAAATACC")
"Criterion met"
>>> cat("GAATTCCA")
"Criterion not met"
>>> cat("ATAAGAAA")
"Criterion met"
>>> cat("AAATAACA")
"Criterion met"
>>> cat("ATGTCACA")
"Criterion met"
>>> cat("CTAATAAA")
"Criterion met"
>>> cat("CAATAACG")
"Criterion met"
>>> cat("CAAATACA")
"Criterion met"
>>> cat("ACTACATC")
"Criterion met"
>>> cat("CTATAACA")
"Criterion met"
>>> cat("CCGAGGAA")
"Criterion not met"
